quantity_measured: melting point

Some compounds with known melting point results, for comparison:
COc1ccc(N2CCOCC2)c2sc(C(=O)NCC(=O)c3sc4ccccc4c3C)nc12 [Example 76]; 185 to 187 °C
COc1ccc(N2CCOCC2)c2sc(C(=O)NCCN3C(=O)c4ccccc4C3=O)nc12 [Example 34]; 231 to 233 °C
COc1ccc(N2CCOCC2)c2sc(C(=O)NCCCN3C(=O)c4ccccc4C3=O)nc12 [Example 32]; 200 to 202 °C
COc1ccc(N2CCOCC2)c2sc(C(=O)NCc3ccncc3)nc12 [Example 31]; 207 to 209 °C
COc1ccc(N2CCOCC2)c2sc(C(=O)NCCc3cccc(C(F)(F)F)c3)nc12 [Example 60]; 106 to 108 °C

[in] Record request: melting point value, item COc1ccc(N2CCOCC2)c2sc(C(=O)NCCc3cccc(Cl)c3)nc12 [Example 65]
[out] 109 to 111 °C

[in] Record request: melting point value, item COc1ccc(N2CCOCC2)c2sc(C(=O)NC(c3ccccc3)c3ccccc3)nc12 [Example 47]
[out] 166 to 168 °C

----------
Measured melting point by item

Some compounds with known melting point results, for comparison:
COc1ccc(N2CCOCC2)c2sc(C(=O)Nc3cccnc3)nc12; 220 to 221 °C
COc1ccc(N2CCOCC2)c2sc(C(=O)NCCN3Cc4ccccc4C3=O)nc12; 199 to 205 °C
COc1ccc(N2CCOCC2)c2sc(C(=O)NC(C)c3nc(C)cs3)nc12 (stereo not drawn); 175 to 176 °C
COc1ccc(N2CCOCC2)c2sc(C(=O)NCC3(c4ccccc4)CCOCC3)nc12; 144 to 148 °C
COc1ccc(N2CCOCC2)c2sc(C(=O)NCC(=O)c3ccccc3)nc12; 197 to 200 °C

[in] Record request: melting point value, item COc1ccc(N2CCOCC2)c2sc(C(=O)NCC(=O)c3cccs3)nc12
[out] 171 to 173 °C

[in] Record request: melting point value, item COc1cccc(CNC(=O)c2nc3c(OC)ccc(N4CCOCC4)c3s2)c1
[out] 140 to 144 °C

----------
Target: human adenosine A2A receptor (Homo sapiens, UniProt P29274)
Construct: expressed in transfected cells; host or cells: CHO cells, Semliki Forest virus expression system; membrane preparation
Sequence (P29274 whole entry): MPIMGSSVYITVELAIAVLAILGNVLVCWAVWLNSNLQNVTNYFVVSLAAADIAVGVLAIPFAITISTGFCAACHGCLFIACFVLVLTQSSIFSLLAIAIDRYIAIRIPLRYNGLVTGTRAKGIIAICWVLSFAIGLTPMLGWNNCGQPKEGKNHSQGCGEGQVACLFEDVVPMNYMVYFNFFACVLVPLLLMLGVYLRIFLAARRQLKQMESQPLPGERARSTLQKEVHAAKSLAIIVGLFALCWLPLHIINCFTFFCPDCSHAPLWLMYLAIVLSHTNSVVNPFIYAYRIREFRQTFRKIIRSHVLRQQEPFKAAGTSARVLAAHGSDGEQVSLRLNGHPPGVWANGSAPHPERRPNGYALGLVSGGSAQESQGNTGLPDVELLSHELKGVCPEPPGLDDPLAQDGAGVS
Experiment: [3H]-SCH-58261 binding assay, human adenosine A2A receptor (SPA, CHO cell membranes)
Details: recombinant human A2A in CHO membranes; [3H]-SCH-58261 1 nM; Ki by Cheng-Prussoff; read-out: hA2 (pKi) (converted)
Measured Ki by item
Give just the number in nM; leave the unit off.

[in] Record request: Ki value, item COc1ccc(N2CCOCC2)c2sc(C(=O)NCCc3ccccc3)nc12 [Example 6]
[out] 20

[in] Record request: Ki value, item COc1ccc(N2CCOCC2)c2sc(C(=O)NCCc3cccc(F)c3)nc12 [Example 57]
[out] 20

[in] Record request: Ki value, item COc1ccc(N2CCOCC2)c2sc(C(=O)NCCc3cccs3)nc12 [Example 22]
[out] 3.98

[in] Record request: Ki value, item COc1ccc(N2CCOCC2)c2sc(C(=O)NCc3cccc(Cl)c3)nc12 [Example 15]
[out] 20

[in] Record request: Ki value, item COc1ccc(N2CCOCC2)c2sc(C(=O)NCCc3ccccc3Cl)nc12 [Example 63]
[out] 20

[in] Record request: Ki value, item COc1ccc(N2CCOCC2)c2sc(C(=O)Nc3cccnc3)nc12 [Example 9]
[out] 15.8

----------
Biological target: human adenosine A2A receptor (Homo sapiens, UniProt P29274)
Construct: expressed in transfected cells; host or cells: CHO cells, Semliki Forest virus expression system; membrane preparation
Experiment: [3H]-SCH-58261 binding assay, human adenosine A2A receptor (SPA, CHO cell membranes)
Conditions: recombinant human A2A in CHO membranes; [3H]-SCH-58261 1 nM; Ki by Cheng-Prussoff; read-out: hA2 (pKi) (converted)
quantity_measured: Ki (µM)
Give just the number in µM; leave the unit off.

Some compounds with known Ki results, for comparison:
COc1ccc(N2CCOCC2)c2sc(C(=O)NCCc3cccc(Cl)c3)nc12; 0.0251
COc1cccc(CCNC(=O)c2nc3c(OC)ccc(N4CCOCC4)c3s2)c1; 0.0251
COc1ccc(N2CCOCC2)c2sc(C(=O)NCCc3ccsc3)nc12; 0.00631
COc1ccccc1CNC(=O)c1nc2c(OC)ccc(N3CCOCC3)c2s1; 0.0251

[in] Record request: Ki value, item COc1ccc(N2CCOCC2)c2sc(C(=O)NCCc3cccnc3)nc12
[out] 0.0251

[in] Record request: Ki value, item COc1ccc(N2CCOCC2)c2sc(C(=O)NC(C)Cc3cccs3)nc12 (stereo not drawn)
[out] 0.00126

[in] Record request: Ki value, item COc1ccc(N2CCOCC2)c2sc(C(N)=O)nc12
[out] 0.0251

[in] Record request: Ki value, item COc1ccc(N2CCOCC2)c2sc(C(=O)NC(C)c3nc(C)cs3)nc12 (stereo not drawn)
[out] 0.00501

[in] Record request: Ki value, item COc1ccc(N2CCOCC2)c2sc(C(=O)NCCc3cccc(C)c3)nc12
[out] 0.0251

----------
Measured melting point by item

Some molecules with known melting point results, for comparison:
COc1ccc(N2CCOCC2)c2sc(C(=O)NCCc3ccc(F)cc3)nc12; 150 to 153 °C
COc1ccc(N2CCOCC2)c2sc(C(=O)NCC3Cc4ccccc4C(=O)N3)nc12 (centres unmarked); 152 to 155 °C
COc1ccc(N2CCOCC2)c2sc(C(=O)NCCc3ccccc3F)nc12; 151 to 153 °C
COc1ccc(N2CCOCC2)c2sc(C(=O)NC3CCCC3)nc12; 174 to 175 °C
COc1ccc(N2CCOCC2)c2sc(C(=O)NCc3ccccn3)nc12; 181 to 182 °C

[in] Record request: melting point value, item COc1ccc(N2CCOCC2)c2sc(C(=O)NCC(=O)c3sccc3Cl)nc12
[out] 125 to 127 °C

[in] Record request: melting point value, item COc1ccc(N2CCOCC2)c2sc(C(=O)NCCc3ccc(Cl)cc3)nc12
[out] 153 to 154 °C

[in] Record request: melting point value, item COc1ccc(N2CCOCC2)c2sc(C(=O)Nc3ccc(C)nc3)nc12
[out] 145 to 147 °C

[in] Record request: melting point value, item COc1ccccc1CCNC(=O)c1nc2c(OC)ccc(N3CCOCC3)c2s1
[out] 158 to 160 °C

[in] Record request: melting point value, item COc1ccc(N2CCOCC2)c2sc(C(=O)NCCc3ccccn3)nc12
[out] 184 to 185 °C

[in] Record request: melting point value, item COc1ccc(N2CCOCC2)c2sc(C(=O)NCCc3cccc(NC(C)=O)c3)nc12
[out] 165 to 166 °C

----------
Measured Ki by item
Biological target: human adenosine A1 receptor (Homo sapiens, UniProt P30542)
Construct: expressed in transfected cells; host or cells: CHO cells, Semliki Forest virus expression system; membrane preparation
Sequence (P30542 whole entry): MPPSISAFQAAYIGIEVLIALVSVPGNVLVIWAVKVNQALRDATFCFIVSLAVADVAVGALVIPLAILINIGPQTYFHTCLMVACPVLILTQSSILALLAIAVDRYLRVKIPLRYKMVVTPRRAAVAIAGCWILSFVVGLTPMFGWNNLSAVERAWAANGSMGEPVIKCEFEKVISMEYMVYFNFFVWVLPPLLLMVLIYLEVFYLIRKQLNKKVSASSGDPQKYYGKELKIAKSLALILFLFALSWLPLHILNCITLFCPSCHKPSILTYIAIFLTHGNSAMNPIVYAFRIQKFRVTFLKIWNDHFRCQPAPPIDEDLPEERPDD
Assay: [3H]-DPCPX binding assay, human adenosine A1 receptor (SPA, CHO cell membranes)
Conditions: recombinant human A1 in CHO membranes; [3H]-DPCPX 0.6 nM; Ki by Cheng-Prussoff; read-out: hA1 (pKi) (converted)
Give just the number in nM; leave the unit off.

COc1ccc(N2CCOCC2)c2sc(C(=O)NCCc3cccnc3)nc12; 6310

Shifting focus to the compound that follows.
[in] # returns recorded Ki (system: human adenosine A1 receptor (Homo sapiens, UniProt P30542)) for COc1ccc(N2CCOCC2)c2sc(C(=O)NCCc3cccc(Cl)c3)nc12
[out] 501

----------
Biological target: human adenosine A1 receptor (Homo sapiens, UniProt P30542)
Construct: expressed in transfected cells; host or cells: CHO cells, Semliki Forest virus expression system; membrane preparation
Experiment: [3H]-DPCPX binding assay, human adenosine A1 receptor (SPA, CHO cell membranes)
Conditions: recombinant human A1 in CHO membranes; [3H]-DPCPX 0.6 nM; Ki by Cheng-Prussoff; read-out: hA1 (pKi) (converted)
Response field label takes Fulfilled when Ki is strictly below 4 µM and Not fulfilled in all other cases.

Please review the entries below; each comes with its answer.
COc1ccc(N2CCOCC2)c2sc(C(=O)NCCc3ccc(F)cc3)nc12 [Example 59]; Not fulfilled
COc1ccc(N2CCOCC2)c2sc(C(=O)NCCc3cccc(F)c3)nc12 [Example 57]; Fulfilled
COc1ccccc1CNC(=O)c1nc2c(OC)ccc(N3CCOCC3)c2s1 [Example 25]; Not fulfilled

[in] State whether 4 µM exceeds Ki recorded for COc1ccc(N2CCOCC2)c2sc(C(=O)NCc3cccc(Cl)c3)nc12 [Example 15] .
[out] Fulfilled

----------
quantity_measured: melting point

Some molecules with known melting point results, for comparison:
COc1ccc(N2CCOCC2)c2sc(C(=O)NC3CCCCC3)nc12; 146 to 147 °C
COc1ccc(N2CCOCC2)c2sc(C(=O)NNC(=O)c3cccnc3)nc12; 222 to 224 °C
COc1ccc(N2CCOCC2)c2sc(C(=O)Nc3ccncc3)nc12; 206 to 207 °C
COc1ccc(N2CCOCC2)c2sc(C(=O)NCCc3ccc(C)cc3)nc12; 136 to 138 °C
COc1ccc(N2CCOCC2)c2sc(C(=O)NCc3ccc(C)o3)nc12; 173 to 174 °C

[in] Record request: melting point value, item COc1ccc(N2CCOCC2)c2sc(C(=O)NCCc3ccccc3)nc12
[out] 50 to 51 °C

[in] Record request: melting point value, item COc1ccc(CNC(=O)c2nc3c(OC)ccc(N4CCOCC4)c3s2)cc1
[out] 164 to 168 °C
